TARGET_OR_TEST_SYSTEM: GST tagged LXRbeta LBD (ligand binding domain) (Homo sapiens, UniProt P55055)
Sequence (P55055 222-460 limits assumed): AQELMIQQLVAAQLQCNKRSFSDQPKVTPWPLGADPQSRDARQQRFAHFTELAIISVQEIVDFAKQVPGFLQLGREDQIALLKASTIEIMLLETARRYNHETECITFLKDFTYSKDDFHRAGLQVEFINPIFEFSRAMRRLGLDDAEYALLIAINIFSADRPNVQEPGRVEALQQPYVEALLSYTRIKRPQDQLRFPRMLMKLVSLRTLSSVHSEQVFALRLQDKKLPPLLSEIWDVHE
METHOD: LanthaScreen TR-FRET Liver X Receptor Coactivator Assay, LXR beta-LBD (co-activator recruitment; IP and % Emax relative to T0901317)
MEASUREMENT_SETUP: Inflection Point of co-activator recruitment, LXR beta-LBD, TR-FRET
Binary call on EC50 with cut-off 0.3 µM: strictly below means true (1), and equality or higher means false (0).

is_below(EC50, 0.3 µM) for CN(C)C(=O)c1ccc(N2CCC([C@H]3C[C@H]3CN(C)C(=O)[C@](O)(c3cccc(C(F)(F)F)c3)C(F)(F)F)CC2)nc1Cl [Example 15-7] ? true (1)

Just wondering, is EC50 of COc1cccc([C@@](O)(C(=O)NCCCC2CCN(c3ccc(C(=O)N(C)C)c(Cl)n3)CC2)C(F)(F)F)c1.O=C(O)C(F)(F)F [Example 5-20] below 0.3 µM? true (1)

Here's an entry: Cc1cccc([C@](O)(C(=O)N(C)CCCC2CCN(c3ccc(C(=O)N(C)C)c(Cl)n3)CC2)C(F)(F)F)c1 [Example 1-16] . Is its EC50 below 0.3 µM? true (1)

Below 0.3 µM on EC50? Entry COc1cccc([C@@](O)(C(=O)N(C)CCCC2CCN(c3ccc(C(=O)N4CC[C@@H](CO)C4)c(Cl)n3)CC2)C(F)(F)F)c1 [Example 2-7] false (0)

Quick check: does COc1cccc([C@@](O)(C(=O)N(C)C[C@H](C)CC2CCN(c3ccc(C(=O)N(C)C)c(Cl)n3)CC2)C(F)(F)F)c1 (single isomer, unassigned) [Example 3-1] have EC50 under 0.3 µM? true (1)

Just wondering, is EC50 of CN(C)C(=O)c1ccc(N2CCC([C@@H]3C[C@H]3CNC(=O)[C@@](O)(c3ccccc3)C(F)(F)F)CC2)nc1Cl [Example 15-13] below 0.3 µM? false (0)

Criterion: EC50 strictly below 0.3 µM. Is it met by CC(C)C(O)(C(=O)NCCCC1CCN(c2ccc(C(=O)N(C)C)c(Cl)c2)CC1)C(F)(F)F (stereo not shown) [Example 5-2] ? false (0)

is_below(EC50, 0.3 µM) for CN(C)C(=O)c1ccc(N2CCC(C)(CCCN(C)C(=O)[C@](O)(c3ccccc3)C(F)(F)F)CC2)cc1Cl [Example 9-7] ? true (1)

Identify whether the compound CC(C)[C@@](O)(C(=O)N(C)CCCC1CCN(c2ccc(C(=O)N(C)C)c(Cl)n2)CC1)C(F)(F)F [Example 1-3] records EC50 below 0.3 µM. true (1)

# check: EC50 < 0.3 µM for COc1cccc([C@@](O)(C(=O)N(C)CC[C@@H]2CC23CCN(c2ccc(C(=O)N(C)C(C)C)c(Cl)c2)CC3)C(F)(F)F)c1 [Example 7-30] false (0)

Answer whether the compound CN(C)C(=O)c1ccc(N2CCC(CCCN(C)C(=O)[C@@]3(c4ccccc4F)CCCO3)CC2)nc1Cl [Example 1-5] has EC50 strictly less than 0.3 µM true (1)

Confirm or reject: EC50 of CN(C)C(=O)c1ccc(N2CCC3(CC2)CC3CCN(C)C(=O)[C@@](O)(c2ccccc2)C(F)(F)F)cc1Cl (stereo partly shown) [Example 7-1] lies strictly below 0.3 µM false (0)

Please state whether EC50 is below 0.3 µM for COc1cccc([C@@](O)(C(=O)NC[C@@H]2C[C@@H]2C2CCN(c3ccc(C(=O)N(C)C)c(Cl)n3)CC2)C(F)(F)F)c1 [Example 15-10] false (0)
